- protocol.summary: log P by reversed-phase HPLC analogously to OECD Guideline 117
- Type: physicochemical
- test.parameters: reversed-phase C18 HPLC column, pH 7.8, running text; [b] neutral range, pH 7.8; read-out: log P[b]
experimental.endpoint: chromatographic logP

# compound, chromatographic logP
measured = [
    ("CCn1c(=O)ccn(-c2cc(SCC(F)(F)F)c(C)cc2F)c1=O", 2.86),
    ("Cc1cc(F)c(-n2ccc(=O)[nH]c2=O)cc1[S+]([O-])CC(F)(F)F (centres unmarked)", 1.24),
    ("CCc1cc(CC)c([S+]([O-])CC(F)(F)F)cc1-n1c(C)c(C#N)c(=O)[nH]c1=O (centres unmarked)", 1.55),
    ("CCOC(=O)c1cn(-c2cc(SCC(F)(F)F)c(C)cc2F)c(=O)n(C2CC2)c1=O", 3.02),
    ("Cc1cc(F)c(-n2ccc(=O)n(C)c2=O)cc1[S+]([O-])CC(F)(F)F (centres unmarked)", 1.61),
]

a: Cc1ccc(-n2ccc(=O)n(C)c2=O)cc1SCC(F)(F)F
b: Cc1ccc(-n2ccc(=O)n(C)c2=O)cc1[S+]([O-])CC(F)(F)F (centres unmarked)
c: CCO/C=C/C(=O)NC(=O)Nc1cc(SCC(F)(F)F)c(C)cc1F
Endpoint returns the given compounds ordered by ascending chromatographic logP. Hello, could you send the labels back in the order asked? Thank you.
b, a, c

----------
- protocol.summary: log P by reversed-phase HPLC analogously to OECD Guideline 117
- Assay type: physicochemical
- test.parameters: reversed-phase C18 HPLC column, pH 7.8, table column; [b] neutral range, pH 7.8, ammonium hydrogencarbonate/acetonitrile; read-out: LogP[b]
experimental.endpoint: chromatographic logP

# compound, chromatographic logP
records = [
    ("Cc1cc(F)c(-n2ccc(=O)[nH]c2=O)cc1[S+]([O-])CC(F)(F)F (stereo not drawn)", 1.3),
]

A: Cc1ccc(-n2ccc(=O)n(C)c2=O)cc1SCC(F)(F)F
B: Cc1cc(F)c(-n2c(C)c(C#N)c(=O)[nH]c2=O)cc1[S+]([O-])CC(F)(F)F (stereo not drawn)
In the pair A and B , the larger recorded chromatographic logP belongs to which? Kindly state the label of the option you pick.
A
(A: 2.48, B: 0.88)

----------
- protocol.summary: log P by reversed-phase HPLC analogously to OECD Guideline 117
- Type: physicochemical
- test.parameters: [a] acidic range, pH 2.7, formic acid (or trifluoroacetic acid)/acetonitrile
experimental.endpoint: LogP[a]
# output: bare number, no unit

The cases that follow already have their LogP[a] on record.
# compound, LogP[a]
records = [
    ("C=CCn1c(=O)ccn(-c2cc(SCC(F)(F)F)c(C)cc2F)c1=O [compound 77]", 3.08),
    ("Cc1cc(F)c(-n2ncc(=O)n(Cc3ccc[n+]([O-])c3)c2=O)cc1[S+]([O-])CC(F)(F)F (racemic) [compound 48]", 1.51),
]

Now for the compound whose LogP[a] we want.
Reported LogP[a] ( Cc1cc(F)c(-n2ncc(=O)n(CC(F)(F)F)c2=O)cc1SCC(F)(F)F [compound 10] ) = 3.65

----------
- protocol.summary: log P by reversed-phase HPLC analogously to OECD Guideline 117
- Type: physicochemical
- test.parameters: [a] acidic range, pH 2.7, formic acid (or trifluoroacetic acid)/acetonitrile
experimental.endpoint: LogP[a]
# output: bare number, no unit

# compound, LogP[a]
records = [
    ("Cc1cc(F)c(-n2ccc(=O)n(CC(C)C)c2=O)cc1[S+]([O-])CC(F)(F)F (stereo not shown) [compound 69]", 2.48),
    ("Cc1ccc(-n2ccc(=O)[nH]c2=O)cc1[S+]([O-])CC(F)(F)F (stereo not shown) [compound 91]", 1.20),
    ("C#CCn1c(=O)ccn(-c2cc(SCC(F)(F)F)c(C)cc2F)c1=O [compound 79]", 2.78),
]

Reported LogP[a] ( Cc1cc(F)c(-n2ccc(=O)n(CC(F)(F)F)c2=O)cc1SCC(F)(F)F [compound 72] ) = 3.16

Reported LogP[a] ( Cc1cc(C)c(-n2ncc(=O)n(C(C)C)c2=O)cc1SCC(F)(F)F [compound 36] ) = 3.88

Reported LogP[a] ( Cc1cc(F)c(-n2ncc(=O)n(CC(F)(F)F)c2=O)cc1[S+]([O-])CC(F)(F)F (single isomer, unassigned) [compound 50] ) = 2.62

Reported LogP[a] ( CCn1c(=O)cnn(-c2cc([S+]([O-])CC(F)(F)F)c(C)cc2F)c1=O (racemic) [compound 21] ) = 2.24

Reported LogP[a] ( Cc1cc(F)c(-n2ccc(=O)n(CC#N)c2=O)cc1[S+]([O-])CC(F)(F)F (racemic) [compound 61] ) = 1.72

Reported LogP[a] ( Cc1cc(F)c(-n2ncc(=O)n(CC(F)(F)F)c2=O)cc1[S+]([O-])CC(F)(F)F (racemic) [compound 9] ) = 2.65

Reported LogP[a] ( Cc1cc(C)c(-n2ncc(=O)n(CC(F)(F)F)c2=O)cc1SCC(F)(F)F [Ex. No. 7] ) = 3.74

Reported LogP[a] ( C=CCn1c(=O)ccn(-c2cc([S+]([O-])CC(F)(F)F)c(C)cc2F)c1=O (racemic) [compound 65] ) = 2.01

Reported LogP[a] ( Cc1cc(F)c(-n2ncc(=O)n(Cc3cccnc3)c2=O)cc1SCC(F)(F)F [compound 43] ) = 2.36

Reported LogP[a] ( O=c1cnn(-c2cc([S+]([O-])CC(F)(F)F)c(Cl)cc2Cl)c(=O)n1CC(F)(F)F (racemic) [compound 11] ) = 3.21
